Recorded values, source patent US20210347865A1.

Target: T1, native human ApoC3 (human, UniProt P02656 21-99, biotinylated in the captured-antigen assays (Tables 6 and 8); sites not stated)
T1 construct: also called nhuApoC3; native huApoC3
T1 sequence (P02656 21-99): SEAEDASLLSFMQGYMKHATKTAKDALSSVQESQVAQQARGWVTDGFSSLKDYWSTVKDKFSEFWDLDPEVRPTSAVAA
Test: SPR, biotinylated antigen captured on SA chip, scFv periplasmic extract injected, pH 7.4

binder	koff
29B03 scFv (scFv, part only; not given: scFv linker, domain order, c-myc tag, V domains shown, not shown: another chain or arm of the molecule; small tags and cut ends) VH: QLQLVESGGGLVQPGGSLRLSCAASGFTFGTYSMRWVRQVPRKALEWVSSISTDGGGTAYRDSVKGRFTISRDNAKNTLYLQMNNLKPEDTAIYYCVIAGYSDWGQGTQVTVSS VL: DVVLTQTPGSLSVVPGESASISCKAGQNLVHPDGKTYLYWLLQKPGQSPQRLIYQVSNRDSGVPDRFTGSGSGTDFTLKISGVKVEDAGVYYCAQGTYWPKTFGQGTKLEIK	0.000572 s⁻¹
5E5 WT scFv (scFv, part only; not given: scFv linker, domain order, c-myc tag, V domains shown, not shown: another chain or arm of the molecule; small tags and cut ends) VH: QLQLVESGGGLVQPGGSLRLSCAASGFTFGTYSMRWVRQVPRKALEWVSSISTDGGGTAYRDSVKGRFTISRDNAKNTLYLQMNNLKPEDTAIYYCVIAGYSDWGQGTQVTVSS VL: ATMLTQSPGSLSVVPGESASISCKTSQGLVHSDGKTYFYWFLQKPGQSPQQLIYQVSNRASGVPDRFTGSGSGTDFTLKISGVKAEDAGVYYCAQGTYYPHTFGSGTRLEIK	0.000964 s⁻¹
